# METHOD_DESCRIPTION: Plasma pharmacokinetics of DT2216 in patients, phase 1 dose escalation
# Format: in vivo, human
# CONDITION: human, plasma, iv, 0.08 mg/kg, Cycle 1 Day 1, 0.08 mg/kg IV, plasma, mean (CV%), N = 1; read-out: AUC0−24
PARAMETER: AUC(0-t) (ng·h/mL)
Expressed in ng·h/mL, but write only the number.

[Q] # input compound: Cc1ncsc1-c1ccc([C@H](C)NC(=O)[C@@H]2C[C@@H](O)CN2C(=O)[C@@H](NC(=O)CCCCCC(=O)N2CCN(CC[C@H](CSc3ccccc3)Nc3ccc(S(=O)(=O)NC(=O)c4ccc(N5CCN(CC6=C(c7ccc(Cl)cc7)CCC(C)(C)C6)CC5)cc4)cc3S(=O)(=O)C(F)(F)F)CC2)C(C)(C)C)cc1 ; wanted: its AUC(0-t)
[A] 13400

* * *

# METHOD_DESCRIPTION: Plasma pharmacokinetics of DT2216 in patients, phase 1 dose escalation
# Type: in vivo, human
# CONDITION: human, plasma, iv, 0.12 mg/kg, Cycle 1 Day 22, 0.12 mg/kg IV BIW, plasma, mean (CV%), N = 1; read-out: AUClast
PARAMETER: AUC(0-t) (ng·h/mL)
Report the figure in ng·h/mL without appending any unit label.

[Q] Item under review: Cc1ncsc1-c1ccc([C@H](C)NC(=O)[C@@H]2C[C@@H](O)CN2C(=O)[C@@H](NC(=O)CCCCCC(=O)N2CCN(CC[C@H](CSc3ccccc3)Nc3ccc(S(=O)(=O)NC(=O)c4ccc(N5CCN(CC6=C(c7ccc(Cl)cc7)CCC(C)(C)C6)CC5)cc4)cc3S(=O)(=O)C(F)(F)F)CC2)C(C)(C)C)cc1 . Reported AUC(0-t)?
[A] 13900

* * *

# METHOD_DESCRIPTION: Plasma pharmacokinetics of DT2216 in patients, phase 1 dose escalation
# Type: in vivo, human
# CONDITION: human, plasma, iv, 0.32 mg/kg, Cycle 1 Day 22, 0.32 mg/kg IV BIW, plasma, mean (CV%), N = 6; read-out: Cmax
# Experimental: Dose escalation consisted of the administration of DT2216 intravenously twice weekly at several different doses outlined in protocol attached. The starting dose was 0.04 mg/kg, established based on pre-clinical toxicity studies. Safety was evaluated using CTCAE version 5.0. […] Patients were allowed a maximum of two intra-patient dose escalations. […] The extent of disease was evaluated using imaging studies and disease-appropriate tumor markers every 8 weeks from day 1 of the first cycle. […]
PARAMETER: Cmax (ng/mL)
Hi! Could you send only the number? It should be in ng/mL, unit omitted.

[Q] I would be grateful if you could share the reported Cmax for Cc1ncsc1-c1ccc([C@H](C)NC(=O)[C@@H]2C[C@@H](O)CN2C(=O)[C@@H](NC(=O)CCCCCC(=O)N2CCN(CC[C@H](CSc3ccccc3)Nc3ccc(S(=O)(=O)NC(=O)c4ccc(N5CCN(CC6=C(c7ccc(Cl)cc7)CCC(C)(C)C6)CC5)cc4)cc3S(=O)(=O)C(F)(F)F)CC2)C(C)(C)C)cc1 .
[A] 4480

* * *

# METHOD_DESCRIPTION: Plasma pharmacokinetics of DT2216 in patients, phase 1 dose escalation
# Type: in vivo, human
# CONDITION: human, plasma, iv, 0.08 mg/kg, Cycle 1 Day 22, 0.08 mg/kg IV BIW, plasma, mean (CV%), N = 1; read-out: AUC0−24
PARAMETER: AUC(0-t) (ng·h/mL)
// return numeric value only (unit: ng·h/mL, not printed)

[Q] Fill in the blank: the reported AUC(0-t) of Cc1ncsc1-c1ccc([C@H](C)NC(=O)[C@@H]2C[C@@H](O)CN2C(=O)[C@@H](NC(=O)CCCCCC(=O)N2CCN(CC[C@H](CSc3ccccc3)Nc3ccc(S(=O)(=O)NC(=O)c4ccc(N5CCN(CC6=C(c7ccc(Cl)cc7)CCC(C)(C)C6)CC5)cc4)cc3S(=O)(=O)C(F)(F)F)CC2)C(C)(C)C)cc1 [DT2216] is ____.
[A] 9840
